Data provenance is paper PMC6073313.

target: SpiCA3 (Stylophora pistillata); construct: gene CA3; experiment: stopped-flow CO2 hydration, phenol red, Cheng-Prusoff; assay type: biochemical; conditions: read-out: KI [mM] ^# / SpiCA3 ^c

| CPD_SMILES | Ki |
| --- | --- |
| CCN(CC)C(=S)S | 0.044 mM |
| S=C(S)S | 0.47 mM |
| NS(N)(=O)=O | 0.0007 mM |
| NS(=O)(=O)O | > 100 mM |

----------
Each record here notes measured Ki.
molecular target: SpiCA3 (Stylophora pistillata, UniProt A0A1B0Y357); construct: gene CA3; test: stopped-flow CO2 hydration, phenol red, Cheng-Prusoff; type: biochemical
Sequence (A0A1B0Y357 1-258): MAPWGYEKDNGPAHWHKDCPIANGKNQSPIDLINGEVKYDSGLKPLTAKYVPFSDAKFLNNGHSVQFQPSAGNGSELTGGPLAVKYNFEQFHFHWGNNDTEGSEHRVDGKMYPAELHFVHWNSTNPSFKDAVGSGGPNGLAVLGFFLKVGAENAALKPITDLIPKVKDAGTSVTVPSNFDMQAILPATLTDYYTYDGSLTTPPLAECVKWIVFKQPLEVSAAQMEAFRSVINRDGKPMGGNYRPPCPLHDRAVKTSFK
OBSERVABLE: Ki (µM)

| COMPOUND | OBSERVABLE | LT_GT_EQ | MEASURED |
| --- | --- | --- | --- |
| OB(O)c1ccccc1 | Ki | > | 100000 |
| S | Ki | = | 340 |
| I | Ki | = | 560 |
| O=C(O)O | Ki | = | 400 |
| O=S(=O)(O)C(F)(F)F [Triflate] | Ki | = | 290 |
| [N-]=[N+]=[N-] | Ki | = | 80 |
| Cl | Ki | = | 510 |
| O=NO | Ki | = | 450 |
| N#C[SeH] | Ki | = | 150 |
